Tested on: Moraxella catarrhalis
Assay: MIC by NCCLS reference broth microdilution, 450 respiratory tract pathogens
Assay type: cell-based
Conditions: β-lactamase negative (n = 13)
Catalogue of compounds with associated MIC50
ASSAY_ENDPOINT: MIC50

>>> test_result("O=C(O)c1cn(C2CC2)c2cc(N3CCNCC3)c(F)cc2c1=O")
"0.015 µg/mL"
>>> test_result("COc1c(N2C[C@@H]3CCCN[C@@H]3C2)c(F)cc2c(=O)c(C(=O)O)cn(C3CC3)c12")
"0.015 µg/mL"
>>> test_result("C[C@H]1COc2c(N3CCN(C)CC3)c(F)cc3c(=O)c(C(=O)O)cn1c23")
"0.03 µg/mL"
>>> test_result("C[C@@H]1CN(c2c(F)c(N)c3c(=O)c(C(=O)O)cn(C4CC4)c3c2F)C[C@H](C)N1")
"0.0075 µg/mL"
>>> test_result("CO/N=C1\\CN(c2nc3c(cc2F)c(=O)c(C(=O)O)cn3C2CC2)CC1CN (racemic)")
"0.015 µg/mL"
>>> test_result("N[C@@H]1[C@H]2CN(c3nc4c(cc3F)c(=O)c(C(=O)O)cn4-c3ccc(F)cc3F)C[C@@H]12")
"0.0075 µg/mL"
>>> test_result("CO/N=C(\\C(=O)N[C@@H]1C(=O)N2C(C(=O)O)=C(COC(N)=O)CS[C@H]12)c1ccco1")
"0.12 µg/mL"
>>> test_result("NC1CCN(c2c(F)cc3c(=O)c(C(=O)O)cn(C4CC4)c3c2Cl)C1 (centres unmarked)")
"≤ 0.00375 µg/mL"
